# Test system: HepG2
# Assay Info: GSK_TCMDC: Percent inhibition of human HepG2 cell line. Test compounds present at 10uM.
# Assay type: functional
Quick rule: Inhibition of at least 2% means true, below that means false.

Solved entries:
Data request: Has `COc1cccc(CNC(=O)c2ccnc(-c3ccc(CNCCOc4ccccc4)cc3)c2)c1.O=C(O)C(F)(F)F` a recorded Inhibition greater than or equal to 2%?
Data returned: true

Data request: How about C=CCN1C(=O)c2[nH]nc(-c3cc(C)c(C)cc3O)c2C1c1cccc(Br)c1 (stereo not given) ?
Data returned: false

Continuing:
Data request: Has `COc1cc(C=C(C2=NC(=O)CS2)c2nc3cccnc3n2C)ccc1O` a recorded Inhibition greater than or equal to 2%?
Data returned: true

Data request: How about `COc1ccc(Cl)cc1NC(=O)Nc1cc(C)nc2ccccc12` ?
Data returned: true

Data request: How about CC1CN(Cc2ccccc2)CCN1c1ccc(NC(=O)c2cccs2)cc1.O=C(O)C(F)(F)F (stereo not given) ?
Data returned: false

Data request: How about COc1cc2c(cc1OC)CC(NCCCCCCNCCc1ccc(Cl)cc1)CC2.Cl (stereo not given) ?
Data returned: true

Data request: How about `Cl.c1cc2c3c(cccc3c1)NC(CCCCCCCCC1=Nc3cccc4cccc(c34)N1)=N2` ?
Data returned: true

###

Reported Inhibition values for a set of molecules
# Test system: Plasmodium falciparum
# Assay Info: GSK_TCMDC: Inhibition of Plasmodium falciparum Dd2 in whole red blood cells, using parasite LDH activity as an index of growth. Test compounds present at 2uM
# Type: functional

// below: answered molecules
Data request: Return reported Inhibition; argument: `CC(C)CNCc1cccc(-c2ccc(CNc3ccc4ncccc4c3)cc2)c1.O=C(O)C(F)(F)F`
Data returned: 32%

Data request: How about `C=CCNC(=O)CCCNC(=N)N.Cl` ?
Data returned: 12%

Data request: How about Cc1cccc2nc(-c3cccc(-c4cccc(CNCC5CCCO5)c4)c3)[nH]c12.O=C(O)C(F)(F)F (centres undefined) ?
Data returned: 99%

Data request: How about `Nc1nccc2ccc(-c3ccc(OCc4ccccc4)cc3)cc12.O=C(O)C(F)(F)F` ?
Data returned: 67%

Data request: How about `Cc1cc(C)c(NC(=O)N[C@H]2CCN(CCCCCNC(=O)/C=C/c3ccc(Cl)c(Cl)c3)C2)c(C)c1` ?
Data returned: 3%

Data request: How about `c1ccc(Oc2ccc(Nc3ccnc4cc(-c5csc(CNCCN6CCOCC6)n5)ccc34)cc2)cc1` ?
Data returned: 99%

Continuing:
Data request: Return reported Inhibition; argument: c1ccc(C(c2ccccc2)N2CCN(C(c3cccnc3)c3nnnn3C3CCCC3)CC2)cc1 (centres undefined)
Data returned: 59%

Data request: How about `O=C(Cc1c[nH]cn1)Nc1cccc(-c2ccc(-c3nc4cc(C(F)(F)F)ccc4[nH]3)s2)c1` ?
Data returned: 99%

Data request: How about `Cc1cccc2nc(-c3cccc(-c4cccc(CNCc5ccc(S(C)(=O)=O)cc5)c4)c3)[nH]c12.O=C(O)C(F)(F)F` ?
Data returned: 66%

###

# System: Plasmodium falciparum
# Assay Info: GSK_TCMDC: Inhibition of Plasmodium falciparum Dd2 in whole red blood cells, using parasite LDH activity as an index of growth. Test compounds present at 2uM
# Format: functional
Field: label. Allowed values: fulfilled (Inhibition < 50%) or not fulfilled (Inhibition >= 50%).

Solved entries:
Data request: In plain terms, does `CCCCCCN1CCC(NCc2ccc(OCCN3CCCC3)cc2)CC1.O=C(O)C(F)(F)F` come in under 50% for Inhibition?
Data returned: not fulfilled

Data request: How about O=C(CC1CCCCC1)NCC(NCCCNc1cc(=O)c2ccccc2[nH]1)c1cc(Br)cc(Br)c1 (configuration not stated) ?
Data returned: not fulfilled

Data request: How about `Cc1[nH]c(C)c(-c2cc3ccccc3o2)c(=O)c1Cl` ?
Data returned: fulfilled

Data request: How about O=C(/C=C/c1ccc(Cl)c(Cl)c1)N1CCC(C(O)CN2CCC(c3c[nH]c4ccccc34)CC2)CC1.O=C(O)C(F)(F)F (configuration not stated) ?
Data returned: fulfilled

Data request: How about `CCOC(=O)c1nc2ccc(SC3CCCCC3)cn2c1Br` ?
Data returned: fulfilled

Continuing:
Data request: In plain terms, does `CC(C)(CN)c1cc(-c2ccc(Cl)c(O)c2)c(-c2ccncc2)o1.Cl` come in under 50% for Inhibition?
Data returned: not fulfilled

Data request: How about `Cc1[nH]c(C)c(-c2ccc(OCCSc3ccncc3)cc2)c(=O)c1Br` ?
Data returned: not fulfilled

Data request: How about `CCOC(=O)N1NC(=O)N(c2ccccc2)C1(c1ccccc1)c1ccccc1` ?
Data returned: not fulfilled

Data request: How about `CNCCNCc1cccc(-c2ccc(-c3nc4ccccc4[nH]3)s2)c1.O=C(O)C(F)(F)F` ?
Data returned: fulfilled

Data request: How about `CC(C)COc1ccc(Cl)cc1Cc1ccc(-c2nc3cc(CCN4CCCC4)ccc3[nH]2)o1.Cl` ?
Data returned: not fulfilled

Data request: How about `O=C(NCc1cccc(F)c1)c1ccc(O)c(-c2cc(Cl)cc(Cl)c2)c1` ?
Data returned: not fulfilled

Data request: How about `CS(=O)(=O)NCCCNCc1cccc(-c2ccc(-c3nc4ccccc4[nH]3)s2)c1.O=C(O)C(F)(F)F` ?
Data returned: fulfilled

Data request: How about `CN1CCC(N2CCN(c3ccc4c(=O)nc(CCc5cccc(F)c5F)n(CC(=O)N(C)Cc5ccc(-c6ccc(C(F)(F)F)cc6)cc5)c4n3)CC2)CC1.O=C(O)C(O)C(O)C(=O)O` ?
Data returned: not fulfilled

Data request: How about `COc1ccc(CN2CCC(CNCc3cccc(-c4ccccc4)c3)CC2)cc1.O=C(O)C(F)(F)F` ?
Data returned: not fulfilled

###

Reported Inhibition values for a set of compounds
# Test system: Plasmodium falciparum
# Assay Info: GSK_TCMDC: Inhibition of Plasmodium falciparum 3D7 in whole red blood cells, using parasite LDH activity as an index of growth. Test compounds present at 2uM
# Type: functional
Number in %, nothing else.

Data request: Return reported Inhibition; argument: `Cc1c(CNCCCNc2cc(=O)c3ccccc3[nH]2)sc(C(F)=C(F)F)c1Br.Cl`
Data returned: 94

Data request: How about C=CCC1OC(=O)c2cc(OC)cc(OC)c21 (configuration not stated) ?
Data returned: 95

Data request: How about `FC(F)(F)c1cccc(Nc2nc(-n3ccnc3)nc(-n3ccnc3)n2)c1` ?
Data returned: 97

Data request: How about `COc1ccc(-c2ccc(NC(=O)c3ccc(Cl)cc3)cc2)cc1CN1CCCN(C)CC1.O=C(O)C(F)(F)F` ?
Data returned: 93

Data request: How about `O=C(/C=C/c1ccc(Cl)c(Cl)c1)N1CCN(C(=O)Nc2ccc(C(F)(F)F)cc2)CC1` ?
Data returned: 98

Data request: How about Cc1cccc2nc(-c3ccc(-c4ccc(NC(=O)C(C)CN(C)C)cc4)cc3)[nH]c12 (configuration not stated) ?
Data returned: 99

Data request: How about COc1ccc(Nc2nccc(N3CCC(NC(=O)c4cc5ccccc5s4)C3)n2)cc1 (configuration not stated) ?
Data returned: 99

Data request: How about `O=C(Nc1cccc([N+](=O)[O-])c1)Nc1ccc(Cl)c(C(F)(F)F)c1` ?
Data returned: 96

Continuing:
Data request: Return reported Inhibition; argument: `COc1ccc2nccc([C@@H](O)CN3CCC(NCc4ccc5c(c4)NC(=O)CO5)CC3)c2c1.Cl`
Data returned: 99

Data request: How about `Nc1oc2c(CN3CCCCCC3)c(O)ccc2c(=O)c1-c1nc2ccccc2s1` ?
Data returned: 100

Data request: How about CCC(C)C(COC(=O)c1cc(OC)c(OC)c(OC)c1)N(C)CCN(C)C(COC(=O)c1cc(OC)c(OC)c(OC)c1)C(C)CC.Cl (configuration not stated) ?
Data returned: 84

Data request: How about `CCOc1c(Br)cc(Br)cc1CNCCCCNc1nc2ccccc2[nH]1` ?
Data returned: 100

Data request: How about `NC(=O)C1CCN(Cc2ccc(-c3ccc(-c4nc5cc(C(F)(F)F)ccc5[nH]4)s3)cc2)CC1.O=C(O)C(F)(F)F` ?
Data returned: 99

Data request: How about `O=C1C(=Cc2cc(Cc3ccccc3)ccc2O)SC(=S)N1Cc1ccccc1` ?
Data returned: 98

Data request: How about `CC(C)Nc1nc(NCCc2c[nH]cn2)nc(Nc2ccc(Oc3ccccc3)cc2)n1` ?
Data returned: 95

Data request: How about `COc1ccc(S(=O)(=O)Nc2cc(Br)cc3c2OCCC3)cc1N1CCN(C(=O)C(Cl)(Cl)Cl)CC1` ?
Data returned: 90

Data request: How about Cc1cc(C2NC(=O)c3ccccc3N2)c(C)n1-c1ccc2c(c1)OCO2 (configuration not stated) ?
Data returned: 86

Data request: How about CN(C)c1ccc(-c2csc(C(=O)NCC3CCN(CC4CCCCC4)C3)c2)cc1.O=C(O)C(F)(F)F (configuration not stated) ?
Data returned: 86

Data request: How about `Cc1cnc(N2CCN(CCCN3CCCC3)CC2)nc1Oc1ccc(-n2ccnc2)cc1.O=C(O)C(F)(F)F` ?
Data returned: 99
